Assignment: determine reported melting point for the given compounds.

Note to self: melting point recorded for `Cl.O=c1oc2nc(N3CCCNCC3)ccc2cc1-c1cn2cccc(F)c2n1` was 267 to 269 °C

Note to self: melting point recorded for `C[C@@H]1CN(C)[C@@H](C)CN1c1ccc2cc(-c3cn4cccc(Cl)c4n3)c(=O)oc2n1` was 191 to 196 °C

Note to self: melting point recorded for `CN1CCCN(c2ccc3cc(-c4cn5cccnc5n4)c(=O)oc3n2)CC1` was 232 to 234 °C

Note to self: melting point recorded for `Cc1cc(F)c2nc(-c3cc4ccc(N5CCCN(C)CC5)nc4oc3=O)cn2c1` was 269 to 273 °C

Note to self: melting point recorded for `C[C@H]1CN(C)CCN1c1ccc2cc(-c3cn4cccc(F)c4n3)c(=O)oc2n1` was 210 to 213 °C

Note to self: melting point recorded for `CN1CCCN(c2ccc3cc(-c4nc5c(Cl)cccc5s4)c(=O)oc3n2)CC1` was 263 to 265 °C

Note to self: melting point recorded for `Cc1ccc2nc(-c3cc4ccc(N5CCCNCC5)nc4oc3=O)cn2c1` was 240 to 243 °C

Note to self: melting point recorded for `CCN1CCN(c2ccc3cc(-c4cn5ccc(C)cc5n4)c(=O)oc3n2)CC1` was 258 to 261 °C

Note to self: melting point recorded for `Cc1ccc2nc(-c3cc4ccc(N5C[C@@H](C)N[C@@H](C)C5)nc4oc3=O)cn2c1` was 248 to 251 °C

Note to self: melting point recorded for `CN1CCN(c2ccc3cc(-c4nc5c(Cl)cccc5s4)c(=O)oc3n2)CC1` was 258 to 260 °C

Note to self: melting point recorded for `C[C@@H]1CN(c2ccc3cc(-c4cn5ccccc5n4)c(=O)oc3n2)C[C@H](C)N1C` was 242 to 246 °C

Note to self: melting point recorded for `Cc1cn2cc(-c3cc4ccc(N5C[C@H](C)N(C)C[C@H]5C)nc4oc3=O)nc2cn1` was 248 to 250 °C

Note to self: melting point recorded for `CCN1CCCN(c2ccc3cc(-c4cn5cc(C)nc(C)c5n4)c(=O)oc3n2)CC1` was 289 to 291 °C

Note to self: melting point recorded for O=c1oc2nc(N3CCN(CC(O)CO)CC3)ccc2cc1-c1nc2c(Cl)cccc2s1 (stereo not drawn) was 216 to 220 °C

Note to self: melting point recorded for `CN1CCN(c2ccc3cc(-c4cn5ccccc5n4)c(=O)oc3n2)CC1` was 243 to 246 °C

Note to self: melting point recorded for `CCN1CCN(c2ccc3cc(-c4cn5cccc(Cl)c5n4)c(=O)oc3n2)C[C@@H]1C` was 196 to 199 °C

Note to self: melting point recorded for `CN1CCCN(c2ccc3cc(-c4cn5cccc(Cl)c5n4)c(=O)oc3n2)CC1` was 245 to 246 °C

Note to self: melting point recorded for `CN1CCN(c2cc3oc(=O)c(-c4nc5c(Cl)cccc5s4)cc3cn2)CC1` was 285 to 288 °C

* * *

Assignment: determine reported melting point for the given molecules.

Note to self: melting point recorded for `Cc1ccc2nc(-c3cc4ccc(N5CCN(C)CC5)nc4oc3=O)cn2c1` was 260 to 264 °C

Note to self: melting point recorded for `CCN1CCN(c2ccc3cc(-c4nc(C)cs4)c(=O)oc3n2)CC1` was 228 to 232 °C

Note to self: melting point recorded for `CN1CCCN(c2ccc3cc(-c4cn5ccccc5n4)c(=O)oc3n2)CC1` was 271 to 274 °C

Note to self: melting point recorded for `CCN1CCN(c2ccc3cc(-c4cn5cc(C)nc(C)c5n4)c(=O)oc3n2)C[C@@H]1C` was 184 to 190 °C

Note to self: melting point recorded for `Cc1cn2cc(-c3cc4cnc(N5CCN(C)CC5)cc4oc3=O)nc2s1` was 282 to 286 °C

Note to self: melting point recorded for `Cc1cc(F)c2nc(-c3cc4ccc(N5C[C@H](C)NC[C@H]5C)nc4oc3=O)cn2c1` was 195 to 198 °C

Note to self: melting point recorded for `Cl.O=c1oc2cc(N3CCNCC3)ncc2cc1-c1nc2c(Cl)cccc2s1` was 266 to 270 °C

Note to self: melting point recorded for `C[C@@H]1CN(c2ccc3cc(-c4nc5c(Cl)cccc5s4)c(=O)oc3n2)C[C@H](C)N1C` was 286 to 288 °C

Note to self: melting point recorded for `CCN1CCN(c2ccc3cc(-c4cn5cccc(F)c5n4)c(=O)oc3n2)CC1` was 203 to 206 °C

Note to self: melting point recorded for `C[C@@H]1CN(c2ccc3cc(-c4cn5cccc(F)c5n4)c(=O)oc3n2)C[C@H](C)N1C` was 242 to 245 °C

Note to self: melting point recorded for `CN1CCN(c2ccc3cc(-c4cn5cccc(F)c5n4)c(=O)oc3n2)CC1` was 258 to 262 °C

Note to self: melting point recorded for `Cc1ccc2nc(-c3cc4ccc(N5C[C@H](C)NC[C@H]5C)nc4oc3=O)cn2c1` was 225 to 229 °C

Note to self: melting point recorded for `CN1CCN(c2ccc3cc(-c4nc5ccccc5s4)c(=O)oc3n2)CC1` was 247 to 250 °C

Note to self: melting point recorded for `C[C@H]1CN(c2ccc3cc(-c4cn5cccc(F)c5n4)c(=O)oc3n2)CCN1C` was 222 to 225 °C

Note to self: melting point recorded for `Cc1ccc2nc(-c3cc4ccc(N5CCN(C)[C@@H](C)C5)nc4oc3=O)cn2c1` was 248 to 252 °C

Note to self: melting point recorded for `Cl.O=c1oc2nc(N3CCCNCC3)ccc2cc1-c1cn2cccnc2n1` was 250 to 252 °C

Note to self: melting point recorded for `CN1CCN(c2ccc3cc(-c4cn5cccc(Cl)c5n4)c(=O)oc3n2)CC1` was 256 to 259 °C

Note to self: melting point recorded for `C[C@@H]1CN(C)[C@@H](C)CN1c1ccc2cc(-c3nc4c(Cl)cccc4s3)c(=O)oc2n1` was 233 to 234 °C

* * *

Quantity kind: melting point

Note to self: melting point recorded for C[C@@H]1CN(c2ccc3cc(-c4cn5cccnc5n4)c(=O)oc3n2)C[C@H](C)N1C [Cpd 118] was 286 to 289 °C

Note to self: melting point recorded for Cl.O=c1oc2nc(N3CCCNCC3)ccc2cc1-c1nc2ccccc2o1 [Cpd 52] was 243 to 245 °C

Note to self: melting point recorded for Cl.O=c1oc2cc(N3CCNCC3)ncc2cc1-c1cn2ccccc2n1 [Cpd 42] was 278 to 284 °C

Note to self: melting point recorded for CCN1CCN(c2ccc3cc(-c4cn5cc(C)cc(F)c5n4)c(=O)oc3n2)CC1 [Cpd 134] was 238 to 242 °C

Note to self: melting point recorded for O=c1oc2nc(N3CCN(Cc4ccccc4O)CC3)ccc2cc1-c1nc2c(Cl)cccc2s1 [Cpd 6] was 262 to 266 °C

Note to self: melting point recorded for C[C@@H]1CN[C@@H](C)CN1c1ccc2cc(-c3cn4cccc(Cl)c4n3)c(=O)oc2n1 [Cpd 94] was 172 to 175 °C

Note to self: melting point recorded for CC(C)N1CCN(c2ccc3cc(-c4nc5ccccc5s4)c(=O)oc3n2)CC1 [Cpd 19] was 241 to 245 °C

Note to self: melting point recorded for C[C@@H]1CN(c2ccc3cc(-c4cn5ccccc5n4)c(=O)oc3n2)C[C@H](C)N1 [Cpd 60] was 283 to 285 °C

Note to self: melting point recorded for CCN1CCCN(c2ccc3cc(-c4cn5ccccc5n4)c(=O)oc3n2)CC1 [Cpd 127] was 285 to 288 °C

Note to self: melting point recorded for Cc1cn2cc(-c3cc4ccc(N5CCCN(C)CC5)nc4oc3=O)nc2c(C)n1 [Cpd 91] was 243 to 245 °C

Note to self: melting point recorded for Cl.O=c1oc2nc(N3CCCNCC3)ccc2cc1-c1cn2cccc(Cl)c2n1 [Cpd 47] was 252 to 255 °C

Note to self: melting point recorded for CCN1CCN(c2ccc3cc(-c4cn5cccc(Cl)c5n4)c(=O)oc3n2)CC1 [Cpd 133] was 218 to 221 °C

Note to self: melting point recorded for CC(C)N1CCN(c2ccc3cc(-c4nc5c(Cl)cccc5s4)c(=O)oc3n2)CC1 [Cpd 23] was 230 to 234 °C

Note to self: melting point recorded for CCN1CCCN(c2ccc3cc(-c4cn5cccc(Cl)c5n4)c(=O)oc3n2)CC1 [Cpd 141] was 201 to 204 °C

Note to self: melting point recorded for Cc1ccn2cc(-c3cc4ccc(N5CCN(C)[C@@H](C)C5)nc4oc3=O)nc2c1 [Cpd 61] was 246 to 250 °C

Note to self: melting point recorded for C[C@H]1CN(c2ccc3cc(-c4cn5ccccc5n4)c(=O)oc3n2)CCN1C [Cpd 81] was 213 to 216 °C

Note to self: melting point recorded for Cc1cn2cc(-c3cc4ccc(N5C[C@@H](C)N[C@@H](C)C5)nc4oc3=O)nc2c(C)n1 [Cpd 90] was 279 to 282 °C

Note to self: melting point recorded for Cc1cn2cc(-c3cc4ccc(N5C[C@H](C)N(C)C[C@H]5C)nc4oc3=O)nc2c(C)n1 [Cpd 123] was 234 to 236 °C
